From: the supplement of paper PMC10057847

B1: library; the commonest letter at each place (parent)
chain: MKPVTLYDVAEYAGVSYQTVSRVVNQASHVSAKTREKVEAAMAELNYIPNRVAQQLAGKQSLLIGVATSSLALHAPSQIVAAIKSRADQLGASVVVSMVERSGVEACKAAVHNLLAQRVSGLIINYPLDDQDAIAVEAACTNVPALFLDVSDQTPINSIIFSHEDGTRLGVEHLVALGHQQIALLAGPLSSVSARLRLAGWHKYLTRNQIQPIAEREGDWSAMSGFQQTMQMLNEGIVPTAMLVANDQMALGAMRAITESGLRVGADISVVGYDDTEDSSCYIPPLTTIKQDFRLLGQTSVDRLLQLSQGQAVKGNQLLPVSLVKRKTTLAPNTQTASPRALADSLMQLARQVSRLESGQ

# Variants of: B1
# Protocol text: Hill coefficient n (dimensionless); higher = steeper dose response
# Settings: with IPTG
Provide the reported Hill coefficient n of each item.
// response body must contain only the number

Bench note: what Hill coefficient n did S190C show?
1.65

S70R S97T , same question.
1.37

V80L L169P , same question.
1.2

S69T L169P , same question.
1.43

V15I F161I A266T K290R M347I , same question.
1.46

V80L , same question.
1.52

S70R I83F , same question.
1.36

A72V A110V N142D S322L , same question.
1.42

S70R N208Y , same question.
1.46

L56M Q317L , same question.
1.44

V96M , same question.
1.46

P285S V301M S308P M347V , same question.
1.33

S69T S279T , same question.
1.56

S69T V80L , same question.
1.38

S70R F161V , same question.
1.29

M42I R51C , same question.
1.6

A109E D165V G166A R255C E259G , same question.
1.33

V136E F161V , same question.
1.84

S70R Q181H , same question.
1.46

Q55K G121V N333I , same question.
1.58

N208Y , same question.
1.64

L56M A194V , same question.
1.42
